Test: Kinetic solubility in Fed State Simulated Intestinal Fluid (FESSIF)
Type: physicochemical
Settings: thermodynamic from solid
READOUT_NAME: solubility kinetic at 15 min (µg/mL)
Reply numerically in µg/mL, unit not repeated.

The recorded solubility kinetic at 15 min for entry CCC[C@H](NC(=O)[C@@H]1[C@H]2CCC[C@H]2CN1C(=O)[C@@H](NC(=O)[C@@H](NC(=O)c1cnccn1)C1CCCCC1)C(C)(C)C)C(=O)C(=O)NC1CC1 equals 5

---

Assay: Kinetic solubility in Fed State Simulated Intestinal Fluid (FESSIF)
Format: physicochemical
Conditions: thermodynamic from solid
Protocol: Kinetic solubility profiles of VX-950 co-crystal fluid bed granules were determined in Fed State Simulated Intestinal Fluid (FESSIF). […] of VX-950 co-crystal fluid-bed granules were dissolved in 100 ml of FESSIF. The experiment of Example was repeated with 166.51 mg of VX-950 co-crystal fluid-bed granules. Kinetic solubility of the following substances or formulations were measured in FESSIF: […]
READOUT_NAME: solubility kinetic at 45 min (µg/mL)
Give the quantity in µg/mL, number only.

# solubility kinetic at 45 min (compound: CCC[C@H](NC(=O)[C@@H]1[C@H]2CCC[C@H]2CN1C(=O)[C@@H](NC(=O)[C@@H](NC(=O)c1cnccn1)C1CCCCC1)C(C)(C)C)C(=O)C(=O)NC1CC1 ) is 5

---

Assay: Kinetic solubility in Fed State Simulated Intestinal Fluid (FESSIF)
Type: physicochemical
Details: thermodynamic from solid
READOUT_NAME: solubility kinetic at 90 min (µg/mL)
State just the number; it will be interpreted in µg/mL.

compound CCC[C@H](NC(=O)[C@@H]1[C@H]2CCC[C@H]2CN1C(=O)[C@@H](NC(=O)[C@@H](NC(=O)c1cnccn1)C1CCCCC1)C(C)(C)C)C(=O)C(=O)NC1CC1 [Crystalline VX-950] , solubility kinetic at 90 min observed: 4

---

Test: Kinetic solubility in Fed State Simulated Intestinal Fluid (FESSIF)
Format: physicochemical
Conditions: thermodynamic from solid
READOUT_NAME: solubility kinetic at 180 min
Be sure to follow the number with its unit.

// solubility kinetic at 180 min lookup, molecule = CCC[C@H](NC(=O)[C@@H]1[C@H]2CCC[C@H]2CN1C(=O)[C@@H](NC(=O)[C@@H](NC(=O)c1cnccn1)C1CCCCC1)C(C)(C)C)C(=O)C(=O)NC1CC1 [Crystalline VX-950] , result: 4 µg/mL

---

Assay: Kinetic solubility in Fed State Simulated Intestinal Fluid (FESSIF)
Type: physicochemical
Conditions: thermodynamic from solid
READOUT_NAME: solubility kinetic at 30 min

Please fill in: solubility kinetic at 30 min reported for CCC[C@H](NC(=O)[C@@H]1[C@H]2CCC[C@H]2CN1C(=O)[C@@H](NC(=O)[C@@H](NC(=O)c1cnccn1)C1CCCCC1)C(C)(C)C)C(=O)C(=O)NC1CC1 [Crystalline VX-950] = 5 µg/mL

Taken from patent US20130072440A1.
